Measured values drawn from patent USRE46585 for this set.

targetEntity: T1, FcRn-p3 fusion protein (human, UniProt P55899 24-297; P61769 21-119)
T1 construct: baculovirus expressed; coated on ELISA wells; not shown: amino terminal part of bacteriophage p3 protein and CVDE protein
T1 sequence (P55899 24-297, chain 1 of 2): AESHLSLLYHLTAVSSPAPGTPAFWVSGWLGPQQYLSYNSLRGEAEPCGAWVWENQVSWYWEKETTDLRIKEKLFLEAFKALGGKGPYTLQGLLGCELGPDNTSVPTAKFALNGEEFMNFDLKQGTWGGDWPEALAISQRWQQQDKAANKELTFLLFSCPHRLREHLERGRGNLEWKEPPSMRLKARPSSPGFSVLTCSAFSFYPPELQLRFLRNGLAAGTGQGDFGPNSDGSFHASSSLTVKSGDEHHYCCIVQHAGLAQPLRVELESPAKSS
T1 sequence (P61769 21-119, chain 2 of 2): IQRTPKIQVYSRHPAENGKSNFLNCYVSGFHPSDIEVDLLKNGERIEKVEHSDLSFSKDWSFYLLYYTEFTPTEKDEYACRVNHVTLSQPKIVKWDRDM
measurementNotes: phage ELISA pH6
outcomeMeasure: Ratio/Fc-H (fold)
Just the number in fold, nothing appended.

Sample records with Ratio/Fc-H:
# binder, Ratio/Fc-H, fold
records = [
    ("T8A_41 (other, EU numbering) CPPCPAPELLGGPSVFLFPPKPKDTLMISRTPEVTCVVEDVSHEDPEVKFNWYVDGVEVHNAKTKPREEQYNSTYRVVSVLTVLHQDWLNGKEYKCKVSNKALPAPIEKTISKAKGQSREPQVYTLPPSRDELTKNQVSLTCLVKGFYPSDIVVEWESNGQPENNYKTTPPVLDSDGSFFLYSKLTVDKSRWQQGNVFSCSVMHEALHSHYTQKSLSLSPGK", 2.5),
    ("T5A_37 (other, EU numbering) CPPCPAPELLGGPSVFLFPPKPKDTLMISRTPEVTCVVVDVSHEDPEVKFNWYVDGVEVHNAKTKPREEQYNGTYRVVSVLTVLHQDWLDGKEYKCKVSNKALPVPIEKTISKAKGQPREPQVYTLPPSRDELTKNQVSLTCLVKGFYPSDIAVEWESNGQPENNYKTTPPVLDSDGSFFLYSKLTVDKSRWQQGNVFSCSVMHEALHYHYTQKSLSLSPGK", 2.2),
    ("C3A_24 (other, EU numbering) CPPCPAPELLGGPSVFLFPPKPKDTLMISRTPEVTCVVVDVSHEDPEVKFNWYVDGVEVHNAKTKPREEQYNSTYRVVSVLPVLHQDWLNGKEYKCKVSNKALPAPIEKTISKAKGQPREPQVYTLPPSRDELTKNQVSLTCLVKGFYPSDIAVEWESNGQPETNYKTTPPVLDSGGSFFLYSKLTVDKSRWQQGTVFSCSVMHEALHYHYTQKSLSLSPGK", 2.9),
    ("T6A_93 (other, EU numbering) CPPCPAPELLGGPSVFLFPPKPKDTLMISRTPEVTCVVVDVSHEDPEVKFNWYVDGVEVHNAKTKPREEQYNSKYRVVSVLTVLHRDWLDGKEYKCKVSNKALPAPIEKTISKAKGQPREPQVYTLPPSRDELTKNQVSLTCLVKGFYPSDIAVEWESNGQPENNYKTTPPVLDSDGSFFLYSKLTVDKSRWQQGNVFSCSVMHEALHYHYTQKSLSLSPGK", 1.1),
    ("T6A_13 (other, EU numbering) CPPCTAPELLGGPSVFLFPPKPKDTLMISRTPEVTCVVVDVSHEDPEVKFNWYVDGVEVHNAKTKPREEQYNSTYRVVSVLTVLHQDWLDGKEYKCKVSNKALPVPIEKTISKAKGQPREPQVYTLPPSRDELTKNRVSLTCLVKGFYPSDIAVEWESNGQPENNYKTTPPVLDSDGSFFLYSKLTVDKSRWQQGNVFSCSVMHEALHYHYTQKSLSLSPGK", 2.9),
]

Ratio/Fc-H recorded for this binder, C4A_27 (other, EU numbering) CPPCPAPELLGGPSVFLFPPKPKDTLMISRTPEVTCVVADVSHEDPEVKFNWYVDGVEVHNAKTKPREEQYNSAYRVVSVLTVLHQDWLNGKEYKCKVSNKALPAPIEKTISKAKGQPREPQVYTLPPSRDELTKNQVSLTCLVKGFYPSDIVVEWGSNGQPENNYKTTPPVLDSDGSFFLYSKLTVDKSRWQQGNVFSCSVMHEALHYHYTQKSLSLSPGK , is 2.7

// Ratio/Fc-H lookup, binder = T4A_39 (other, EU numbering) CPPCPAPELLGGPSVFLFPPKPKDTLMISRTPEVTCVVEDVSHEDPEVKFNWYVDGVEVHNAKTKPREEQYNSTYRVVSVLTVLHQDWLNGKEYKCKVSNKALPAPIEKTISKAKGQPREPQVYTLPPSRDELTKNQVSLTCLVKGFYPSDIVVEWESNGQPENNYKTTPLVLDSDGSFFLYSKLTVDKSRWQQGNVFSCSVMHEALHNHYTQKSLSLSPGK , result: 1.4

Ratio/Fc-H recorded for this binder, C6A_48 (other, EU numbering) CPPCTAPELLGGPSVFLFPPKPKDTLMISRTPEVTCVVEDVSHEDPEVKFNWYVDGVEVHNAKTKPREEQYNSTYRVVSVLTVLHQDWLNGKEYKCKVSNKALPAPIEKTISKAKGQPREPQVYTLPPSRDELTKNQVSLTCLVKGFYPSDIVVEWESNGQPENNYKTTPPVLDSDGSFFLYSKLTVDKSRWQQGNVFSCSVMHEALHSHYTQKSLSLSPGK , is 4.5

Lab book: Ratio/Fc-H of T4A_37 (other, EU numbering) CPPCSAPELLGGPSVFLFPPKPKDTLMISRTPEVTCVVEDVSHEDPEVKFNWYVDGVEVHNAKTKPREEQYNSTYRVVSVLTVLHQDWLNGKEYKCKVSNKALPAPIEKTISKAKGQPREPQVYTLSPSRDELTKNQVSLTCLVKGFYPSDIVVEWESNGQPENNYKTTPPVLDSDGSFFLYSKLTVDKSRWQQGNVFSCSVMHEALHSHYTQKSLSLSPGK noted as 4

// sample T7A_87 (other, EU numbering) CPPCSAPELLGGPSVFLFPPKPKDTLMISRTPEVTCVVVDVSHEDPEVKFNWYVDGVEVHNAKTKPREEQYNSTYRVVSVLTVLHQDWLDGKEYKCKVSNKALPAPIEKTISKAKGQPREPQVYTLPPSRDELTKNRVSLTCLVKGFYPSDIAVEWESNGQPENNYKTTPPVLDSDGSFFLYSKLTVDKSRWQQGNVFSCSVMHEALHYHYTQKSLSLSPGK , its Ratio/Fc-H was 2.9
